Reference for the values: paper PMC6468299

molecular target: DNA polymerase β (Pol-β) (Homo sapiens); assay: DNA polymerase inhibition assay, Pol-β; format: biochemical; details: 1 h, 3H-dTTP incorporation
quantity_measured: IC90

q: Given the entry O=c1[nH]c(=O)n([C@@H]2O[C@H](COP(=O)(O)OP(=O)(O)OP(=O)(O)O)[C@@H](O)[C@@H]2F)cc1I [FIAU-TP, fialuridine triphosphate, reference compound] , report its measured IC90.
a: 5.56 µM

q: IC90 for "Nc1nc2c(ncn2[C@@H]2O[C@H](COP(=O)(O)OP(=O)(O)OP(=O)(O)O)[C@@H](O)[C@H]2F)c(=O)[nH]1" ?
a: > 200 µM

q: Fill in: IC90 of "O=P(O)(O)OP(=O)(O)OP(=O)(O)OC[C@H]1O[C@@H](n2cnc3c(O)ncnc32)[C@H](F)[C@@H]1O" is ___
a: > 200 µM

q: What value of IC90 has been recorded for this entry: "Nc1ncnc2c1ncn2[C@@H]1O[C@H](COP(=O)(O)OP(=O)(O)OP(=O)(O)O)[C@@H](O)[C@H]1F"
a: > 200 µM

q: Name the reported IC90 value associated with the compound "O=c1ccn([C@@H]2O[C@H](COP(=O)(O)OP(=O)(O)OP(=O)(O)O)[C@@H](O)[C@H]2F)c(=O)[nH]1"
a: > 200 µM

q: // lookup IC90 for "Nc1ccn([C@@H]2O[C@H](COP(=O)(O)OP(=O)(O)OP(=O)(O)O)[C@@H](O)[C@H]2F)c(=O)n1"
a: > 200 µM

* * *

Molecular target: DNA polymerase α (Pol-α) (Homo sapiens)
Sequence (P09884 1-1462): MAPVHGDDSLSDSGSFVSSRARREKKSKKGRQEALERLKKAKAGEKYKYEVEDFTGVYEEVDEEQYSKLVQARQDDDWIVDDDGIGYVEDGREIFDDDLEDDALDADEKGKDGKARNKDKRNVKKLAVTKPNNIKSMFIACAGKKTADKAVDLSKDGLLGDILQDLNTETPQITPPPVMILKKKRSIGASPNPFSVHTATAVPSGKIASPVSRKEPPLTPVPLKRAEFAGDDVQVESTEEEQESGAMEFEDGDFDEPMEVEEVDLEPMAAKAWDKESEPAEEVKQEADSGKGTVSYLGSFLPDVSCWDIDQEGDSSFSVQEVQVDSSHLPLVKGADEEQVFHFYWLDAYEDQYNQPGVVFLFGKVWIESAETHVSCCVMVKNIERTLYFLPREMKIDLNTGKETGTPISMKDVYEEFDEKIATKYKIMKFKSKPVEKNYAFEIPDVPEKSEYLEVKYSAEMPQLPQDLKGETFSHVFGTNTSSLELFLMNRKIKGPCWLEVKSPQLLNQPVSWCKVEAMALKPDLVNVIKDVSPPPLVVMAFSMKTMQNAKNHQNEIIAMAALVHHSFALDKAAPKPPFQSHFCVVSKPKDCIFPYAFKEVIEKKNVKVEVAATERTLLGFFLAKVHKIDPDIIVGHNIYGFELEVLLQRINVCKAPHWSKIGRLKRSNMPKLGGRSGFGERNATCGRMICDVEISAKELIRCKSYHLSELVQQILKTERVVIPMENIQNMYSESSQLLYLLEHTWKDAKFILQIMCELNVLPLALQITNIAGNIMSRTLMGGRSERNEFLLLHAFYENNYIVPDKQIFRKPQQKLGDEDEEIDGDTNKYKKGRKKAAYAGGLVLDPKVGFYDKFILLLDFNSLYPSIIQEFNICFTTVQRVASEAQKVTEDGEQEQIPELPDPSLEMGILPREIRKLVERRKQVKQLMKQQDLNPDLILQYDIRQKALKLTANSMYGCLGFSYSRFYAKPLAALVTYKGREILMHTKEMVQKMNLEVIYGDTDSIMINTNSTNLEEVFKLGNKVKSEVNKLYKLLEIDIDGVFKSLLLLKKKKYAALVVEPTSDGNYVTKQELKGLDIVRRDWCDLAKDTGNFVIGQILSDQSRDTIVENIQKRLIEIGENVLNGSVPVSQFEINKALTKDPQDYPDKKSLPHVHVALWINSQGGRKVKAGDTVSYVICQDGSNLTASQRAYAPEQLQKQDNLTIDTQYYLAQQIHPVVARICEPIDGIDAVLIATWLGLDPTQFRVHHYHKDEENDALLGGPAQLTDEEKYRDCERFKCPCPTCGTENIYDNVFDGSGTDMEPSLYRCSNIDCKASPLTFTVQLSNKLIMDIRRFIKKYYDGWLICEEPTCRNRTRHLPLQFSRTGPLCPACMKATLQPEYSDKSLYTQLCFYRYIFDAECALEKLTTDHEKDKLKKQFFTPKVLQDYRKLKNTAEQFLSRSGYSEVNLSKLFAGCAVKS
quantity_measured: IC50

q: For the molecule Nc1ccn([C@@H]2O[C@H](COP(=O)(O)OP(=O)(O)OP(=O)(O)O)[C@@H](O)[C@H]2F)c(=O)n1 [2′-F-CTP] , what IC50 is on record?
a: > 200 µM

q: Recorded IC50 for Nc1ncnc2c1ncn2[C@@H]1O[C@H](COP(=O)(O)OP(=O)(O)OP(=O)(O)O)[C@@H](O)[C@H]1F [2′-F-ATP] , please?
a: > 200 µM

q: Given the molecule O=P(O)(O)OP(=O)(O)OP(=O)(O)OC[C@H]1O[C@@H](n2cnc3c(O)ncnc32)[C@H](F)[C@@H]1O [2′-F-ITP] , what is its reported IC50?
a: > 200 µM

q: Reported IC50, molecule O=c1ccn([C@@H]2O[C@H](COP(=O)(O)OP(=O)(O)OP(=O)(O)O)[C@@H](O)[C@H]2F)c(=O)[nH]1 [2′-F-UTP] : ____
a: > 200 µM

q: Tell me the measured IC50 of Nc1nc2c(ncn2[C@@H]2O[C@H](COP(=O)(O)OP(=O)(O)OP(=O)(O)O)[C@@H](O)[C@H]2F)c(=O)[nH]1 [2′-F-GTP] , please.
a: > 200 µM

q: Param item = O=c1[nH]c(=O)n([C@@H]2O[C@H](COP(=O)(O)OP(=O)(O)OP(=O)(O)O)[C@@H](O)[C@@H]2F)cc1I [FIAU-TP, fialuridine triphosphate, reference compound] ; retrieve measured IC50.
a: 0.27 µM
